The reported numbers originate from ChEMBL document CHEMBL3046583.

System: Culex pipiens pallens
Assay: Larvicidal activity against Culex pipiens pallens (mosquito) at 2 mg/kg
Type: functional
# Activity values compiled below

Entry CCc1cc(C2=NC(c3ccc(Cl)cc3)CO2)n(C)n1 (stereo unspecified) , Activity reported as 0%

Further cases:
Entry CCc1cc(C(=O)NC(CO)c2ccc(Cl)cc2)n(C)n1 (stereo unspecified) , Activity reported as 0%

Entry CCc1cc(C(=O)NC(CO)c2ccc(C(C)(C)C)cc2)n(C)n1 (stereo unspecified) , Activity reported as 0%

Entry CCc1cc(C(=O)NC(CO)c2ccc(Oc3ccccc3)cc2)n(C)n1 (stereo unspecified) , Activity reported as 0%

Entry CCc1nn(C)c(C(=O)NC(CO)c2ccc(C(C)(C)C)cc2)c1Cl (stereo unspecified) , Activity reported as 0%

Entry CCc1nn(C)c(C(=O)NC(CCl)c2ccc(Oc3ccccc3)cc2)c1Cl (stereo unspecified) , Activity reported as 100%

* * *

# Activity values compiled below
Test system: Culex pipiens pallens
Test: Larvicidal activity against Culex pipiens pallens (mosquito) at 2 mg/kg
Type: functional
Respond numerically; units are % and should not be typed.

Consider the following illustrative entries.
Entry CCc1nn(C)c(C(=O)NC(CO)c2ccc(Cl)cc2)c1Cl (stereo not given) , Activity reported as 0

Entry CCc1nn(C)c(C2=NC(c3ccc(Oc4ccccc4)cc3)CO2)c1Cl (stereo not given) , Activity reported as 60

Entry CCc1nn(C)c(C(=O)NC(CCl)c2ccc(Cl)cc2)c1Cl (stereo not given) , Activity reported as 100

Entry CCc1cc(C(=O)NC(CCl)c2ccc(C(C)(C)C)cc2)n(C)n1 (stereo not given) , Activity reported as 0

// next entry
Entry CCc1nn(C)c(C(=O)NCc2ccc(C(C)(C)C)cc2)c1Cl , Activity reported as 100
